Assay: Trans-enterocyte transport of CA in Caco-2 cell monolayer
Type: in vitro ADME, human
Conditions: human, Caco-2, CA 50 μM, 1.5 h, CA alone; read-out: Papp AP to BL
MEASURED_METRIC: Papp A→B at 1.5 h, 50 μM (×10⁻⁶ cm/s)
A number alone suffices; assume ×10⁻⁶ cm/s.

Query: Look up Papp A→B at 1.5 h, 50 μM for this compound: CC(C)c1cc2c(c(O)c1O)[C@@]1(C(=O)O)CCCC(C)(C)[C@@H]1CC2
Reply: 0.69

* * *

Experiment: Trans-enterocyte transport of CA in Caco-2 cell monolayer
Format: in vitro ADME, human
Conditions: human, Caco-2, CA 75 μM, 1.5 h
MEASURED_METRIC: Papp B→A at 1.5 h, 75 μM (×10⁻⁶ cm/s)
A number alone suffices; assume ×10⁻⁶ cm/s.

Query: Look up Papp B→A at 1.5 h, 75 μM for this molecule: CC(C)c1cc2c(c(O)c1O)[C@@]1(C(=O)O)CCCC(C)(C)[C@@H]1CC2
Reply: 0.79

* * *

Test: Trans-enterocyte transport of CA in Caco-2 cell monolayer
Format: in vitro ADME, human
Conditions: human, Caco-2, CA 50 μM, 2.5 h; read-out: Papp AP-BL
MEASURED_METRIC: Papp A→B at 2.5 h, 50 μM (×10⁻⁶ cm/s)
A number alone suffices; assume ×10⁻⁶ cm/s.

Query: Look up Papp A→B at 2.5 h, 50 μM for this molecule: CC(C)c1cc2c(c(O)c1O)[C@@]1(C(=O)O)CCCC(C)(C)[C@@H]1CC2 [CA, Carnosic acid]
Reply: 0.57

* * *

Assay: Trans-enterocyte transport of CA in Caco-2 cell monolayer
Assay type: in vitro ADME, human
Conditions: human, Caco-2, CA 50 μM, 0.5 h
Procedure: Caco-2 were cultured in EMEM complete medium containing 10% FBS, 1% non-essential amino acids, and 1% penicillin-streptomycin double antibody, and the culture conditions were 37 °C, 5% CO2, in a constant temperature incubator [16]. We first established non-toxic dose ranges of CA in Caco-2 cells using MTT assay. […] A quantity of 200 μL of medium was added to each well to obtain a series of CA solutions (concentrations of 25, 50, 75, and 100 μmoL). […]
MEASURED_METRIC: efflux ratio at 0.5 h, 50 μM

Query: Look up efflux ratio at 0.5 h, 50 μM for this compound: CC(C)c1cc2c(c(O)c1O)[C@@]1(C(=O)O)CCCC(C)(C)[C@@H]1CC2
Reply: 0.42

* * *

Experiment: Effect of verapamil, PEG 400 and EDTA on trans-enterocyte transport of CA
Assay type: in vitro ADME, human
Details: human, Caco-2, CA 100 μM, 2.0 h, + 5 mmoL/L EDTA; read-out: Papp AP to BL
MEASURED_METRIC: Papp A→B at 2 h, 100 μM (×10⁻⁶ cm/s)
A number alone suffices; assume ×10⁻⁶ cm/s.

Query: Look up Papp A→B at 2 h, 100 μM for this compound: CC(C)c1cc2c(c(O)c1O)[C@@]1(C(=O)O)CCCC(C)(C)[C@@H]1CC2 [CA, Carnosic acid]
Reply: 3.01

* * *

Test: Trans-enterocyte transport of CA in Caco-2 cell monolayer
Format: in vitro ADME, human
Settings: human, Caco-2, CA 100 μM, 2.0 h, CA alone; read-out: Papp AP to BL
MEASURED_METRIC: Papp A→B at 2 h, 100 μM

Query: Look up Papp A→B at 2 h, 100 μM for this compound: CC(C)c1cc2c(c(O)c1O)[C@@]1(C(=O)O)CCCC(C)(C)[C@@H]1CC2 [CA, Carnosic acid]
Reply: 0.87 ×10⁻⁶ cm/s
